# Tested on: Escherichia coli TOP10;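 note: peptides expressed intracellularly from a pBAD plasmid library in pooled LB shake-flask culture, induced with 0.3% L-arabinose, DNA abundance read by NGS, three biological replicates, DESeq2 with apeglm shrinkage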
# protocol.description: shrunken log2 fold change of peptide-encoding DNA abundance (4.5 h post-induction vs induction); higher = less antimicrobial activity (less host growth inhibition)
# conditions: time post-induction: 4.5 h; library: site-saturation at positions 5, 18, 19, 20
# shrunken log2 fold change annotations

{"macromolecule.sequence": "RRIRSRPPRLPRPRPRPLVQPRP", "shrunken log2 fold change": -0.0825}
{"macromolecule.sequence": "RRIRERPPRLPRPRPRPCRGPRP", "shrunken log2 fold change": 0.0764}
{"macromolecule.sequence": "RRIRGRPPRLPRPRPRPTQSPRP", "shrunken log2 fold change": 1.08}
{"macromolecule.sequence": "RRIRCRPPRLPRPRPRPSIYPRP", "shrunken log2 fold change": -0.713}
{"macromolecule.sequence": "RRIRNRPPRLPRPRPRPAVIPRP", "shrunken log2 fold change": -0.277}
{"macromolecule.sequence": "RRIRCRPPRLPRPRPRPGEVPRP", "shrunken log2 fold change": 0.212}
{"macromolecule.sequence": "RRIRHRPPRLPRPRPRPPQSPRP", "shrunken log2 fold change": 0.193}
{"macromolecule.sequence": "RRIRRRPPRLPRPRPRPNNYPRP", "shrunken log2 fold change": -0.378}
{"macromolecule.sequence": "RRIRFRPPRLPRPRPRPMYTPRP", "shrunken log2 fold change": -0.00812}
{"macromolecule.sequence": "RRIRWRPPRLPRPRPRPCPYPRP", "shrunken log2 fold change": -0.271}
{"macromolecule.sequence": "RRIRARPPRLPRPRPRPRFYPRP", "shrunken log2 fold change": -0.0395}
{"macromolecule.sequence": "RRIRMRPPRLPRPRPRPTFLPRP", "shrunken log2 fold change": -0.319}
{"macromolecule.sequence": "RRIRYRPPRLPRPRPRPRKSPRP", "shrunken log2 fold change": 0.117}
{"macromolecule.sequence": "RRIRARPPRLPRPRPRPKTPPRP", "shrunken log2 fold change": 0.903}
{"macromolecule.sequence": "RRIRCRPPRLPRPRPRPTLIPRP", "shrunken log2 fold change": 1.65}
